# target entity: T1, Human CD19-his protein (human, UniProt P15391 20-291)
# T1 construct: bought protein; also called recombinant human CD19-His; CD19 full-length protein; not shown: His tag
# T1 sequence (looked up): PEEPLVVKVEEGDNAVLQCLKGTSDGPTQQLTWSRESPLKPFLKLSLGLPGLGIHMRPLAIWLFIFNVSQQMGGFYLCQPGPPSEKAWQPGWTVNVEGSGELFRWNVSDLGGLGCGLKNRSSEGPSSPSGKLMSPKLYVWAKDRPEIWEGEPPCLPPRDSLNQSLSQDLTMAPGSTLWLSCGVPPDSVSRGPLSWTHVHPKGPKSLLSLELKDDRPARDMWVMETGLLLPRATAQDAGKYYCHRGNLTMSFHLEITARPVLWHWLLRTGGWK
# method notes: ELISA, coated human CD19-His
# Method: Human CD19-his protein (purchased from ACROBiosystems, catalog number: CD9-H52H2) was diluted with PBS to a final concentration of 4 μg/mL, and then added to a 96-well ELISA plate at 100 μl/well. […] The OD450 nm values were read by an ELISA microplate reader (Multimode Plate Reader, EnSight, purchased from Perkin Elmer).
readout kind: OD450 at 100 nM (OD450)

binder | quantitative result
F3.121.4-L1H1 (antibody, mouse IgG1, kappa, V domains shown, humanized antibody of F3.121.4, VL1+VH1, murine IgG1 constant regions) VH: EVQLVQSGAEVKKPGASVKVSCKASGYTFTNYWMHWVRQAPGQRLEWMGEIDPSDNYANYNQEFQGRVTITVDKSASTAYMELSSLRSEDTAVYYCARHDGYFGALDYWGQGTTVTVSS VL: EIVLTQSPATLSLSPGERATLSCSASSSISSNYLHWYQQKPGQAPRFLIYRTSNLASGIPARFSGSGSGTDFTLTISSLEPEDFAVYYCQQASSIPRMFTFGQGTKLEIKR | 2.84
F3.121.4 (antibody, human IgG1, V domains shown, human-murine chimeric antibody, human IgG1 constant; also called chimeric antibody F3.121.4) VH: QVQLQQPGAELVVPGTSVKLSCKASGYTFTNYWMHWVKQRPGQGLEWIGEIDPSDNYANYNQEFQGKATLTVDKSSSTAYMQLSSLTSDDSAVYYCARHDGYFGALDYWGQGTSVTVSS VL: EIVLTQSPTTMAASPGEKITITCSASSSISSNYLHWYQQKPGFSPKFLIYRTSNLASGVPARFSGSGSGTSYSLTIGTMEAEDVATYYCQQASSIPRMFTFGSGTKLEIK | 0.82
F3.121.4-L3H2 (antibody, mouse IgG1, kappa, V domains shown, humanized antibody of F3.121.4, VL3+VH2, murine IgG1 constant regions) VH: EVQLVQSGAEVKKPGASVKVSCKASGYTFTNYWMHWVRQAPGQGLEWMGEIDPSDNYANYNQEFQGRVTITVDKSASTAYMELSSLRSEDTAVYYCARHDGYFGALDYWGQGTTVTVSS VL: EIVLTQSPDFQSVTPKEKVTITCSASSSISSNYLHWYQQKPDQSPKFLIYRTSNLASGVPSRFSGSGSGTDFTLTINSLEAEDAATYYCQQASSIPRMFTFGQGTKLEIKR | 2.28
